Dear all, this message contains IC50 results, target or system UniProt:P0DTD1.

Worked cases, answers included:
Compound | Endpoint label | Result
CC(C)C[C@@H](C(=O)N1C[C@]2(C[C@H]1C#N)C(=O)Nc1ccccc12)N(C)C(=O)[C@H](NC(=O)C(F)(F)F)c1ccccc1 | IC50 | < 100 nM
CC(C)C[C@@H](C(=O)N1C[C@]2(C[C@H]1C#N)C(=O)Nc1ccccc12)N(C)C(=O)[C@H](CC1CC1)NC(=O)c1ccc(F)cc1 | IC50 | < 100 nM
Cc1cc(C(=O)N[C@@H](CC2CC2)C(=O)N[C@@H](CC(C)(C)C)C(=O)N2C[C@]3(C[C@H]2C#N)C(=O)Nc2ccccc23)no1 | IC50 | < 100 nM
CC(C)(C)C(NCc1cc(F)c(F)cc1F)C(=O)N1CCC[C@H]1C(=O)N1C[C@]2(C[C@H]1C#N)C(=O)Nc1ccccc12 (some centres unmarked) | IC50 | > 1000 nM
CN(C)[C@@H](CC1CC1)C(=O)N(C)[C@@H](CC(C)(C)C)C(=O)N1C[C@]2(C[C@H]1C#N)C(=O)Nc1ccccc12 | IC50 | 100 to 1000 nM

For every listed record, write down its IC50.
1. CN(C(=O)[C@H](Cc1ccc(F)cc1)NC(=O)c1cc2c(F)cc(F)c(F)c2[nH]1)[C@@H](CC(C)(C)C)C(=O)N1C[C@]2(C[C@H]1C#N)C(=O)Nc1ccccc12
2. CN(C(=O)[C@H](CC1CC1)NC(=O)c1cc(OC(F)(F)F)c2ncccc2c1)[C@@H](CC(C)(C)C)C(=O)N1C[C@]2(C[C@H]1C#N)C(=O)Nc1ccccc12

1. < 100 nM
2. < 100 nM

For every listed record, write down its IC50.
1. CC(C)C[C@@H](C(=O)N1C[C@]2(C[C@H]1C#N)C(=O)Nc1ccccc12)N(C)C(=O)C(NC(=O)OCc1ccccc1)c1ccccc1 (some centres unmarked)
2. CN(C(=O)[C@H](Cc1ccc(F)cc1)n1cc(-c2ccccc2)nn1)[C@@H](CC(C)(C)C)C(=O)N1C[C@]2(C[C@H]1C#N)C(=O)Nc1ccccc12
3. Cc1cc(C(=O)N[C@@H](Cc2ccc(F)cc2)C(=O)N(C)[C@@H](CC(C)(C)C)C(=O)N2C[C@]3(C[C@H]2C#N)C(=O)Nc2ccccc23)no1
4. CC(C)(C)C(NC(=O)NCc1ccccc1)C(=O)N1CCC[C@H]1C(=O)N1C[C@]2(C[C@H]1C#N)C(=O)Nc1ccccc12 (some centres unmarked)
5. CC(C)[C@H](NC(=O)OCc1ccccc1)C(=O)N[C@@H](CC(C)(C)C)C(=O)N1C[C@]2(C[C@H]1C#N)C(=O)Nc1ccccc12
6. CC(C)C[C@@H](C(=O)N1C[C@]2(C[C@H]1C#N)C(=O)Nc1ccccc12)N(C)C(=O)[C@@H](NC(=O)OCc1ccccc1)C1CCCCC1
7. CN(C(=O)[C@H](Cc1ccc(F)cc1)NC(=O)C(F)(F)F)[C@@H](CC(C)(C)C)C(=O)N1C[C@]2(C[C@H]1C#N)C(=O)Nc1ccccc12

< 100 nM
< 100 nM
< 100 nM
> 1000 nM
< 100 nM
< 100 nM
< 100 nM

For every listed record, write down its IC50.
1. CN(C(=O)[C@H](CC1CC1)NC(=O)C(F)(F)F)[C@@H](CC(C)(C)C)C(=O)N1C[C@]2(C[C@H]1C#N)C(=O)Nc1ccccc12
2. CC(=O)N[C@@H](C(=O)N[C@@H](CC(C)(C)C)C(=O)N1C[C@]2(C[C@H]1C#N)C(=O)Nc1ccccc12)C(C)C
3. CN(C(=O)[C@H](Cc1ccc(F)cc1)N1CCCNC1=O)[C@@H](CC(C)(C)C)C(=O)N1C[C@]2(C[C@H]1C#N)C(=O)Nc1ccccc12
4. [2H]C([2H])([2H])N(C(=O)[C@H](CC1CC1)NC(=O)C(F)(F)F)[C@@H](Cc1ccc(F)cc1)C(=O)N1C[C@]2(C[C@H]1C#N)C(=O)Nc1ccccc12
5. CN(C(=O)[C@H](Cc1ccc(F)cc1)N1CCCC1=O)[C@@H](CC(C)(C)C)C(=O)N1C[C@]2(C[C@H]1C#N)C(=O)Nc1ccccc12
6. CC(C)[C@H](NC(=O)c1cc(F)c(F)c(F)c1)C(=O)N(C)[C@@H](CC(C)(C)C)C(=O)N1C[C@]2(C[C@H]1C#N)C(=O)Nc1ccccc12
7. COC(=O)N[C@H](C(=O)N(C)[C@@H](CC(C)C)C(=O)N1C[C@]2(C[C@H]1C#N)C(=O)Nc1ccccc12)C(C)(C)C
8. CC(=O)N[C@@H](Cc1ccc(F)cc1)C(=O)N(C)[C@@H](CC(C)(C)C)C(=O)N1C[C@]2(C[C@H]1C#N)C(=O)Nc1ccccc12

["< 100 nM", "100 to 1000 nM", "< 100 nM", "< 100 nM", "< 100 nM", "< 100 nM", "< 100 nM", "< 100 nM"]

Quick check: IC50 on UniProt:P0DTD1, item `CN(C(=O)[C@H](CC1CC1)NC(=O)NC1CC1)[C@@H](CC(C)(C)C)C(=O)N1C[C@]2(C[C@H]1C#N)C(=O)Nc1ccccc12` ?
< 100 nM
